Data origin: patent US10040781B2

Molecular target: TBK1 (Homo sapiens (Human), UniProt Q9UHD2)
Sequence (Q9UHD2 whole entry): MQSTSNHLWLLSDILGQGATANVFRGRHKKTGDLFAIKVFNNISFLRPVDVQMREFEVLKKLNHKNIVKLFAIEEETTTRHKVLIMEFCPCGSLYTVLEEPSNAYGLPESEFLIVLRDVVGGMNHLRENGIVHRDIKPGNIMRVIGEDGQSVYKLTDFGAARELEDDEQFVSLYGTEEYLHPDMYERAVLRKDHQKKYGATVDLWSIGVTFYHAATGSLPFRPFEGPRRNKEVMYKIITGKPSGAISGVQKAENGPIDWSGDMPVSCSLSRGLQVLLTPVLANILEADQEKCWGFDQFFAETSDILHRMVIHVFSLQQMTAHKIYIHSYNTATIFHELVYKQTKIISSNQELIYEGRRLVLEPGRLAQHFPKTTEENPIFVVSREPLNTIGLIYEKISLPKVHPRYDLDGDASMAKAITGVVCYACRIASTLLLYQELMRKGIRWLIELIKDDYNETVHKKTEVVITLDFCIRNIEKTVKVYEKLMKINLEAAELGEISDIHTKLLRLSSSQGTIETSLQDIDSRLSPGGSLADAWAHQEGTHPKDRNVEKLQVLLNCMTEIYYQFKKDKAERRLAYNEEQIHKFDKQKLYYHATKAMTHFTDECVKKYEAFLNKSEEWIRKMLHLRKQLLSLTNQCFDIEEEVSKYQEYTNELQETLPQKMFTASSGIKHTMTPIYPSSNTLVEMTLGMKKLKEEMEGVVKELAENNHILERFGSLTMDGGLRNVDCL
Test: TBK1 TR-FRET enzymatic assay
measured-attribute: IC50 (nM)
Please give a number only; it is taken to be in nM.

Look over these answered cases.
| smiles-str | scale-unit | readout-value |
| --- | --- | --- |
| COc1cc(Nc2ncnc(-c3ccc(O[C@H]4CCN(C(=O)[C@H](C)O)C[C@H]4F)c(C#N)c3)n2)ccc1N1CCN(C)C[C@@H]1C | nM | 2 |
| N#Cc1cc(-c2ncnc(Nc3ccc(C4CCN(C5COC5)CC4)cc3)n2)ccc1O[C@H]1CCN(C(=O)[C@@H](O)CO)C[C@H]1F | nM | 3 |

For the next question, use this compound.
Entry under test: `N#Cc1cc(-c2ncnc(Nc3ccc(N4CCN(C5COC5)CC4)cc3)n2)ccc1O[C@H]1CCN(C(=O)[C@H]2CCCN2)C[C@H]1F` . Its IC50 was 29

* * *

Biological target: TBK1 (Homo sapiens (Human), UniProt Q9UHD2)
Test: TBK1 TR-FRET enzymatic assay
Reported IC50 values are given for each entry in this list.
Response body: numeric value in nM, unit text excluded.

| compound | measured-attribute | scale-unit | readout-value |
| --- | --- | --- | --- |
| CC(C)n1cc(Nc2ncnc(-c3ccc(O[C@H]4CCN(C(=O)[C@H](C)O)C[C@H]4F)c(C#N)c3)n2)cn1 [Example 350] | IC50 | nM | 3 |
| N#Cc1cc(-c2ncnc(Nc3ccc(N4CCN(C5COC5)CC4)cc3)n2)ccc1O[C@H]1CCN(C(=O)c2[nH]nc(N)c2Cl)C[C@H]1F [Example 323] | IC50 | nM | 3 |

Below: the item to evaluate.
For the compound Cn1ccc(C(=O)N2CCC(COc3ccc(-c4ncnc(Nc5ccc(N6CCN(C7COC7)CC6)cc5)n4)cc3C#N)CC2)cc1=O [Example 593] , the measured IC50 on TBK1 (Homo sapiens (Human), UniProt Q9UHD2) was 452

* * *

Molecular target: TBK1 (Homo sapiens (Human))
Assay: TBK1 TR-FRET enzymatic assay
# IC50 annotations
Remember to quote the unit after the number.

The following molecules have reported results that may help.
| molecule | IC50 |
| --- | --- |
| COc1cc(Nc2ncnc(-c3ccc(O[C@H]4CCN(C(=O)[C@H](C)O)C[C@H]4F)c(C#N)c3)n2)ccn1 [Example 474] | 6 nM |
| N#Cc1cc(-c2ncnc(Nc3ccc(N4CCN(C5COC5)CC4)cc3)n2)ccc1OC1CCN(C(=O)c2ccc[nH]2)CC1 [Example 190] | 3 nM |
| Cn1cc(Nc2ncnc(-c3ccc(OC4CCOCC4)c(C#N)c3)n2)cn1 [Example 9] | 3 nM |

Moving on to another molecule below.
Entry N#Cc1cc(Nc2ncnc(-c3ccc(OC4CCOCC4)c(C#N)c3)n2)ccc1OC1CCOCC1 [Example 36] ; IC50 = 10 nM

* * *

Recorded pIC50 by entry
Molecular target: IKKε (Homo sapiens (Human))
Experiment: IKKε TR-FRET enzymatic assay
Type: biochemical
Conditions: TR-FRET, 2×Km ATP; geometric mean of minimum four determinations; read-out: IKKe IC50
On this scale, pIC50 is minus log10 of a concentration expressed in M (mol/L).

Some compounds with known pIC50 results, for comparison:
| smiles-str | readout-value |
| --- | --- |
| COc1cc(Nc2ncnc(-c3ccc(O[C@H]4CCN(C(=O)[C@@H](O)CO)C[C@H]4F)c(C#N)c3)n2)cnc1N1CCN(C2COC2)CC1 | 8.70 |
| N#Cc1cc(-c2ncnc(Nc3ccc(N4CCN(C5COC5)CC4)cc3)n2)ccc1O[C@H]1CCN(C(=O)c2nc(=O)[nH][nH]2)C[C@H]1F | 8.70 |
| Cc1cn[nH]c1C(=O)N1CC[C@H](Oc2ccc(-c3ncnc(Nc4ccc(N5CCN(C6COC6)CC5)cc4)n3)cc2C#N)[C@H](F)C1 | 7.70 |

Record `CC(C)n1cc(Nc2ncnc(-c3ccc(O[C@H]4CCN(C(=O)[C@@H](O)CO)C[C@H]4F)c(C#N)c3)n2)cn1` has IKKε (Homo sapiens (Human)) pIC50 equal to 8.70

* * *

In this section we review reported pIC50 values for a set of compounds.
Biological target: IKKε (Homo sapiens (Human))
Assay: IKKε TR-FRET enzymatic assay
Format: biochemical
Conditions: read-out: IKKe IC50
As a rule, pIC50 stands for the negative log10 of the concentration, concentration in M.

// worked examples, pIC50 included
| compound | pIC50 |
| --- | --- |
| N#Cc1cc(-c2ncnc(Nc3ccc(N4CCOCC4)cc3)n2)ccc1OC1CCOCC1 [Example 49] | 8.15 |
| N#Cc1cc(-c2ncnc(Nc3ccc(N4CCN(C5COC5)CC4)cc3)n2)ccc1OCCNC(N)=O [Example 602] | 6.21 |
| C[C@H](O)C(=O)N1CC[C@H](Oc2ccc(-c3ncnc(Nc4ccc(C(C)(C)O)nc4)n3)cc2C#N)[C@H](F)C1 [Example 382] | 8.52 |

The recorded pIC50 for entry COc1cc(Nc2ncnc(-c3ccc(OC4CCOCC4)c(C#N)c3)n2)ccc1C1CCN(C2COC2)CC1 [Example 20] equals 8.70

* * *

Target: TBK1 (Homo sapiens (Human), UniProt Q9UHD2)
Assay: TBK1 TR-FRET enzymatic assay;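 note: phosphorylation of a biotinylated Ser/Thr peptide by purified full-length recombinant TBK1, read by TR-FRET after 240 min at 25 °C, IC50 is the geometric mean of at least four runs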
measured-attribute: IC50 (nM)
Write the number in nM without appending the unit.

| compound | assayed-system | readout-value |
| --- | --- | --- |
| N#Cc1cc(-c2ncnc(Nc3ccc(N4CCN(C5COC5)CC4)cc3)n2)ccc1O[C@@H]1CCC(=O)NC1 [Example 199] | TBK1 (Homo sapiens (Human), UniProt Q9UHD2) | 4 |
| N#Cc1cc(-c2ncnc(Nc3ccc(N4CCN(C5COC5)CC4)cc3)n2)ccc1O[C@H]1CCN(C(=O)c2ccncn2)C[C@H]1F [Example 337] | TBK1 (Homo sapiens (Human), UniProt Q9UHD2) | 4 |
| CC1(C)CN(C(=O)CCO)C[C@@H](F)[C@H]1Oc1ccc(-c2ncnc(Nc3ccc(N4CCN(C5COC5)CC4)cc3)n2)cc1C#N [Example 443] | TBK1 (Homo sapiens (Human), UniProt Q9UHD2) | 3 |
| CN1CCN(c2cccc(Nc3ncnc(-c4ccc(OC5CCOCC5)c(C#N)c4)n3)c2)CC1 [Example 62] | TBK1 (Homo sapiens (Human), UniProt Q9UHD2) | 5 |

Lab entry: TBK1 (Homo sapiens (Human), UniProt Q9UHD2) assay, compound N#Cc1cc(-c2ncnc(Nc3ccc(N4CCN(C5COC5)CC4)cc3)n2)ccc1O[C@H]1CCN(C(=O)c2ccncc2N)C[C@H]1F [Example 390] , IC50 = 65

* * *

Target: IKKε (Homo sapiens (Human), UniProt Q14164)
Sequence (Q14164 whole entry): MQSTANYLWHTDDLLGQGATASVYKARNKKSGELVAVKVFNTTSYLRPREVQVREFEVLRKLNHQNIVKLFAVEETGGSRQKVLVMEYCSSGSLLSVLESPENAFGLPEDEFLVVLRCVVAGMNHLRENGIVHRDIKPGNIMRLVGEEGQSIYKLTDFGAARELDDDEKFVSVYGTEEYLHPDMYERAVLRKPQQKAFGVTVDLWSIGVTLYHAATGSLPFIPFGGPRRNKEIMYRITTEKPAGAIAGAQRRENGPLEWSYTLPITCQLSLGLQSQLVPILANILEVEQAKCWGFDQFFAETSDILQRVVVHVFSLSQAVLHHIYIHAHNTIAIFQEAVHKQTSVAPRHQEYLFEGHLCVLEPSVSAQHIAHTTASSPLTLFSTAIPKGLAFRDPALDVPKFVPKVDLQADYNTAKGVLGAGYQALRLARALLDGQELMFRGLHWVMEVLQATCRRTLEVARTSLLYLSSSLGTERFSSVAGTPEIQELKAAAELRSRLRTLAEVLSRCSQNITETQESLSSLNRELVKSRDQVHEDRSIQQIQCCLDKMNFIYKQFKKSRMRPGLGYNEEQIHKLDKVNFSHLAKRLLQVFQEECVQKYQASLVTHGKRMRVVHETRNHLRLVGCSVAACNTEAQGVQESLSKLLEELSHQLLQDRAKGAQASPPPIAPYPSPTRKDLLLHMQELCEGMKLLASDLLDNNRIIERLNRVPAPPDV
Assay: IKKε TR-FRET enzymatic assay
Assay type: biochemical
Details: read-out: IKKe IC50
pIC50: recorded values
The meaning of pIC50 here: minus log10 of the concentration in molar units.

The measured pIC50 associated with `CC(C)(O)c1cccc(Nc2ncnc(-c3ccc(OC4CCOCC4)c(C#N)c3)n2)c1` reads 7.85

Per the record, `C[C@H](O)C(=O)N1CC[C@H](Oc2ccc(-c3ncnc(Nc4ccc(N5CCN(CC6COC6)CC5)cc4)n3)cc2C#N)[C@H](F)C1` has pIC50 of 9.00

Record `Cn1cc(Nc2ncnc(-c3ccc(OC4CCOCC4)c(C#N)c3)n2)cn1` , field pIC50: 8.15

Value of measured pIC50 for the entry `N#Cc1cc(-c2ncnc(Nc3ccc(N4CCN(C5COC5)CC4)cc3)n2)ccc1OC1CCN(C(=O)C2(O)CC2)CC1` : 7.15

Note to self: pIC50 recorded for `C[C@H](O)C(=O)N1CC[C@H](Oc2ccc(-c3ncnc(Nc4ccc(N5CCN(C6COC6)C[C@@H]5C)cc4)n3)cc2C#N)C(F)(F)C1` was 9.00

* * *

Entries with their measured pIC50, system hJAK2 (Homo sapiens (Human), UniProt O60674):
pIC50: −log10 of the molar value.

| smiles-str | readout-value |
| --- | --- |
| N#Cc1cc(-c2ncnc(Nc3ccc(N4CCN(C5COC5)CC4)cc3)n2)ccc1OC1CCN(C(=O)c2cc[nH]c2)CC1 | ≤ 6.00 |
| C[C@H](O)C(=O)N1CC[C@H](Oc2ccc(-c3ncnc(Nc4cnc5c(c4)OCCN5)n3)cc2C#N)[C@H](F)C1 | ≤ 6.00 |
| N#Cc1cc(-c2ncnc(Nc3ccc(N4CCN(C5COC5)CC4)cc3)n2)ccc1O[C@H]1CCN(C(=O)N2CC[C@H](O)C2)C[C@H]1F | ≤ 6.00 |

Form field pIC50 for item `CC(C)(O)C(=O)N1CCC(Oc2ccc(-c3ncnc(Nc4ccc(N5CCN(C6COC6)CC5)cc4)n3)cc2C#N)CC1` on hJAK2 (Homo sapiens (Human), UniProt O60674): < 6.00

Record `C=CC(=O)Nc1ccc(Nc2ncnc(-c3ccc(OC4CCOCC4)c(C#N)c3)n2)cc1` / hJAK2 (Homo sapiens (Human), UniProt O60674), pIC50 recorded as < 6.00

I looked up `N#Cc1cc(-c2ncnc(Nc3ccc(N4CCN(C5COC5)CC4)cc3)n2)ccc1OC1CCC2(CC1)OCCO2` and its pIC50 for hJAK2 (Homo sapiens (Human), UniProt O60674) was ≤ 6.00

pIC50 for hJAK2 (Homo sapiens (Human), UniProt O60674) with input `COc1cc(Nc2ncnc(-c3ccc(OC4CCOCC4)c(C#N)c3)n2)ccc1C(=O)N1CCN(C2COC2)CC1` equals < 6.00
